Listed here: items and their measured FACS MFI.
# Experimental System: Rhesus monkey Claudine18.2 (Rhesus monkey) (UniProt F6YQY3)
# Experiment Description: FACS on CHOK1-rh18.2 cells
A bare number is all that is needed in reply.

Example entries begin here.
[
  {
    "Binder": "Ab01 (antibody, V domains shown) VH: DVQLQESGPGLVKPSQSLSLTCSVTGYSITSGYYWNWIRQFPGNKLEWMGYITYDGSNNYNPSLKNRISITRDTSKNQFFLKLNSVTTEDAATYFCARDPNYYGTTLPAWFVYWGQGTLVTVSA VL: DIVVTQSHKFMSTSVGDRVSITCKASQDVGTAVAWYQQKPGQSPKLLIYWASTRHTGVPDRFTGSGSGTDFTLTISNVQSEDLTDYFCQQYSSYVTFGAGTKLELK",
    "Observable": "FACS MFI",
    "Measured Number": 8380
  },
  {
    "Binder": "Ab11 (antibody, V domains shown) VH: EVMLVESGGDLVKPGGSLKLSCAASGFTFSRYTMSWVRQTPEKRLEWVATVSVGSGNTYYLDSVKGRFTISRDNAKNTLFLQMNSLRSEDTALYYCTRLGQTQRNAVDYWGQGTSVTVSS VL: DIVMTQSPSFLSVSAGEKVTMSCKSSQSLFNGGNQKNYLAWYQQKPGQPPKLLIYGASTRDSGVPDRFTGSGSGTDFTLTISNVQAEDLAIYFCQNDHSFPLTFGAGTKLELK",
    "Observable": "FACS MFI",
    "Measured Number": 7800
  },
  {
    "Binder": "Ab36 (antibody, V domains shown) VH: EVKLEESGGGLVQPGGSMKLSCVASGFTFSNYWMNWVRQSPEKGLEWVAQIRLKSDNYATHYAESVKGMFTISRDDSKSSVYLQMNNLRAEDTGIYYCTAGGDYWGQGTTLTVSS VL: DIVMTQSQKFMSTTVGDRVSITCKASQNVGTAVAWYHQKPGQSPKLLIYSASNRYTGVPDRFIGSGSGTDFTLTISNVQSEDLGNYFCQQYINYLLTFGSGTKLEIK",
    "Observable": "FACS MFI",
    "Measured Number": 17400
  },
  {
    "Binder": "Ab20 (antibody, V domains shown) VH: EVMLVESGGGLVKPGGSLKLSCVASGFTFSSYTMSWVRQTPEKRLEWVATIIGGYGNTYYSDSVKGRITISRDSAKNTLYLQMISLRSEDTALYYCTRLGQTQRNAMDYWGQGTSVTVSS VL: DILMTQSPSSLSVSAGEKVTMNCKSSQSLLNSGNQKNYLAWYQQKPGQPPKLLIYGASTRESGVPDRFTGSGSGTDFTLTISSVQAEDLAVYYCQNDYYYPFTFGAGTKLEL",
    "Observable": "FACS MFI",
    "Measured Number": 7050
  }
]

Now take the following binder into account.
Any idea what FACS MFI was measured for Ab34 (antibody, V domains shown) VH: EVLLQQSGPELVKPGASVKIPCKASGYTFSDYNMDWVKQSHGKSLEWIGHINPNNDNTIYNQKFKGKATLTVDKSSNTAYMDLRSLSSEDTAVYYCARGAYYGNSMDYWGQGTSVTVSS VL: DIVMTQSPSSLTVTAGERVTMSCKSSQSLLNGGNQRNYLTWYQQKPGQSPKLLIYWASTWESGVPDRFTGSGSGTDFTLTISSVQAEDLAVYYCQNAYFYPYTFGGGTKLEIK ?
6720
